molecular target: Melanocortin receptor 4 (Homo sapiens, UniProt P32245); test: Effective concentration at human melanocortin 4 receptor in cAMP release assay
Sequence (P32245 whole entry): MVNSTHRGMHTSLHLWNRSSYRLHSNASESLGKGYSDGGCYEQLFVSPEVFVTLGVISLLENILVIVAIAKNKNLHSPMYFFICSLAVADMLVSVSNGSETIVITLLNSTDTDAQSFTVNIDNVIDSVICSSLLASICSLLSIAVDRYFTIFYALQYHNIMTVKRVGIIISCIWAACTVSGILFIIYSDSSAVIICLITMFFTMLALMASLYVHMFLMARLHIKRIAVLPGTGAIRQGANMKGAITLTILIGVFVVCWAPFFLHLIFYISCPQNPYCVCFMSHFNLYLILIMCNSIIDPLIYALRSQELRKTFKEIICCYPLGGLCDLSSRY

molecule	EC50 (nM)
COc1ccc(-n2nc(Sc3ccc(Cl)cc3)cc(CC[C@@H](C)NC(=O)[C@H]3CCNC[C@@H]3c3ccc(Cl)cc3Cl)c2=O)cc1	2400
COc1ccc(N2N=C(Sc3ccc(Cl)cc3)CC(CC[C@@H](C)NC(=O)[C@H]3CCNC[C@@H]3c3ccc(F)cc3)C2=O)cc1 (stereo in doubt; 63)	30
COc1ccc(-n2nc(Sc3ccc(Cl)cc3)cc(CC[C@@H](C)NC(=O)[C@H]3CNCC[C@@H]3c3cccc(Cl)c3)c2=O)cc1	680
COc1ccc(-n2nc(Sc3ccc(Cl)cc3)cc(CC[C@@H](C)N(C)C(=O)C3CNCCC3c3ccc(F)cc3)c2=O)cc1 (some centres not stated)	410
COc1ccc(-n2nc(Sc3ccc(Cl)cc3)cc(CC[C@@H](C)NC(=O)[C@H]3CNC[C@@H]3c3ccc(F)cc3)c2=O)cc1	110
COc1ccc(-n2nc(Sc3ccc(Cl)cc3)cc(CC[C@@H](C)NC(=O)[C@H]3CN(C)CC[C@@H]3c3ccc(F)cc3)c2=O)cc1	320
COc1ccc(-n2nc(Sc3ccc(Cl)cc3)cc(CC[C@@H](C)NC(=O)[C@H]3CNCC[C@@H]3c3ccc(C)cc3)c2=O)cc1	1100

====

Listed here are molecules together with their documented Max.
target: Melanocortin receptor 4 (Homo sapiens); test: Maximum percentage of cAMP accumulation relative to alpha-MSH at human melanocortin 4 receptor at 10 uM; assay type: functional
testReadout: Max

molecule	testReadout	assayResult
COc1ccc(N2N=C(Sc3ccc(Cl)cc3)CC(CC[C@@H](C)NC(=O)[C@H]3CNCC[C@@H]3c3ccc(F)cc3)C2=O)cc1 (stereo in doubt; 26)	Max	67%
COc1ccc(-n2nc(Sc3ccc(Cl)cc3)cc(CC[C@@H](C)NC(=O)[C@H]3CNC[C@@H]3c3ccc(F)cc3F)c2=O)cc1	Max	81%
COc1ccc(-n2nc(Sc3ccc(Cl)cc3)cc(CC[C@@H](C)N(C)C(=O)C3CNCCC3c3ccc(F)cc3)c2=O)cc1 (stereo partly drawn)	Max	94%

====

target: Melanocortin receptor 4 (Homo sapiens, UniProt P32245); test: Inhibition of [125I]-NDP- alpha-MSH binding to human melanocortin 4 receptor expressed in CHO cells; assay type: cell-based
pIC50: −log10 of the molar value.
# pIC50 >= 8 gives T, anything below gives F

compound	categoryLabel
COc1ccc(N2N=C(Sc3ccc(Cl)cc3)CC(CC[C@@H](C)NC(=O)[C@@H]3CNCC[C@H]3c3ccc(F)cc3)C2=O)cc1 (stereo in doubt; 61)	F
COc1ccc(-n2nc(Sc3ccc(Cl)cc3)cc(CC[C@@H](C)NC(=O)[C@H]3CNCC[C@@H]3c3ccsc3)c2=O)cc1	F
COc1ccc(-n2nc(Sc3ccc(Cl)cc3)cc(CC[C@@H](C)NC(=O)[C@H]3CNCC[C@@H]3c3ccc(C(F)(F)F)cc3)c2=O)cc1	T
COc1ccc(-n2nc(Sc3ccc(Cl)cc3)cc(CC[C@@H](C)NC(=O)[C@H]3CNC[C@@H]3c3ccc(Cl)cc3)c2=O)cc1	F
COc1ccc(-n2nc(Sc3ccc(Cl)cc3)cc(CC[C@@H](C)NC(=O)[C@H]3CN(C)CC[C@@H]3c3ccc(F)cc3)c2=O)cc1	T
COc1ccc(-n2nc(Sc3ccc(Cl)cc3)cc(CC[C@@H](C)N(C)C(=O)C3CNCCC3c3ccc(F)cc3)c2=O)cc1 (stereo partly drawn)	F
COc1ccc(-n2nc(Sc3ccc(Cl)cc3)cc(CC[C@@H](C)NC(=O)[C@H]3CNC[C@@H]3c3ccccc3)c2=O)cc1	F
COc1ccc(-n2nc(Sc3ccc(Cl)cc3)cc(CC[C@@H](C)NC[C@@H]3CNCC[C@H]3c3ccc(F)cc3)c2=O)cc1	F
COc1ccc(N2N=C(Sc3ccc(Cl)cc3)CC(CC[C@@H](C)NC(=O)C3CNC[C@@H]3c3ccc(F)cc3)C2=O)cc1 (single isomer, unassigned; 67)	F
COc1ccc(N2N=C(Sc3ccc(Cl)cc3)CC(CC[C@@H](C)NC(=O)[C@@H]3CNCC[C@H]3c3ccc(F)cc3)C2=O)cc1 (stereo in doubt; 60)	F
COc1ccc(-n2nc(Sc3ccc(Cl)cc3)cc(CC[C@@H](C)NC[C@H]3CNCC[C@@H]3c3ccc(F)cc3)c2=O)cc1	F
COc1ccc([C@H]2CNC[C@@H]2C(=O)N[C@H](C)CCc2cc(Sc3ccc(Cl)cc3)nn(-c3ccc(OC)cc3)c2=O)cc1	F
COc1ccc(-n2nc(Sc3ccc(Cl)cc3)cc(CC[C@@H](C)NC(=O)[C@H]3CCNC[C@@H]3c3ccc(Cl)cc3Cl)c2=O)cc1	F

====

target: Melanocortin receptor 4 (Homo sapiens, UniProt P32245); test: Inhibition of [125I]-NDP- alpha-MSH binding to human melanocortin 4 receptor expressed in CHO cells; format: cell-based
testReadout: log10 IC50 (log10 of the value in nM)

molecule	log10 IC50
COc1ccc(N2N=C(Sc3ccc(Cl)cc3)CC(CC[C@@H](C)NC(=O)[C@@H]3CCNC[C@H]3c3ccc(F)cc3)C2=O)cc1 (stereo in doubt; 64)	3.11
COc1ccc(-n2nc(Sc3ccc(Cl)cc3)cc(CC[C@@H](C)NC(=O)[C@H]3CNCC[C@@H]3c3ccc(C)cc3)c2=O)cc1	0.67
COc1ccc(-n2nc(Sc3ccc(Cl)cc3)cc(CC[C@@H](C)NC(=O)[C@H]3CNCC[C@@H]3c3ccc4ccccc4c3)c2=O)cc1	1.23
COc1ccc(N2N=C(Sc3ccc(Cl)cc3)CC(CC[C@@H](C)NC(=O)[C@H]3CCNC[C@@H]3c3ccc(F)cc3)C2=O)cc1 (stereo in doubt; 63)	1.34
COc1ccc(-n2nc(Sc3ccc(Cl)cc3)cc(CC[C@@H](C)NC(=O)[C@H]3CNCC[C@@H]3c3ccc(Cl)cc3Cl)c2=O)cc1	0.51

====

target: Melanocortin receptor 4 (Homo sapiens, UniProt P32245); assay: Effective concentration at human melanocortin 4 receptor in cAMP release assay
EC50 by entry:

compound	unit	EC50
COc1ccc(-n2nc(Sc3ccc(Cl)cc3)cc(CC[C@@H](C)NC[C@H]3CNCC[C@@H]3c3ccc(F)cc3)c2=O)cc1	nM	470
COc1ccc(N2N=C(Sc3ccc(Cl)cc3)CC(CC[C@@H](C)NC(=O)[C@@H]3CCNC[C@H]3c3ccc(F)cc3)C2=O)cc1 (stereo in doubt; 65)	nM	1400
COc1ccc(-n2nc(Sc3ccc(Cl)cc3)cc(CC[C@@H](C)NC(=O)[C@H]3CNC[C@@H]3c3ccccc3F)c2=O)cc1	nM	710
COc1ccc(-n2nc(Sc3ccc(Cl)cc3)cc(CC[C@@H](C)NC(=O)[C@H]3CCNC[C@@H]3Cc3ccc(F)cc3)c2=O)cc1	nM	630
COc1ccc(-n2nc(Sc3ccc(Cl)cc3)cc(CC[C@@H](C)NC(=O)[C@H]3CNCC[C@@H]3c3ccsc3)c2=O)cc1	nM	490
COc1ccc(-n2nc(Sc3ccc(Cl)cc3)cc(CC[C@@H](C)NC(=O)[C@H]3CCNC[C@@H]3c3ccc(C#N)cc3)c2=O)cc1	nM	120
COc1ccc(-n2nc(Sc3ccc(Cl)cc3)cc(CC[C@@H](C)NC(=O)[C@H]3CCNC[C@@H]3c3ccccc3F)c2=O)cc1	nM	550
COc1ccc(N2N=C(Sc3ccc(Cl)cc3)CC(CC[C@@H](C)NC(=O)[C@H]3CNCC[C@@H]3c3ccc(F)cc3)C2=O)cc1 (stereo in doubt; 25)	nM	390
